- Target: CnHsp90 (heat shock protein 90) (Cryptococcus neoformans)
- Construct: gene CNAG_06150; recombinant CnHsp90 6x-His tag fusion protein (2157 bp amplified product in pRSET-A)
- Sequence (J9VVA4 entry or part of it): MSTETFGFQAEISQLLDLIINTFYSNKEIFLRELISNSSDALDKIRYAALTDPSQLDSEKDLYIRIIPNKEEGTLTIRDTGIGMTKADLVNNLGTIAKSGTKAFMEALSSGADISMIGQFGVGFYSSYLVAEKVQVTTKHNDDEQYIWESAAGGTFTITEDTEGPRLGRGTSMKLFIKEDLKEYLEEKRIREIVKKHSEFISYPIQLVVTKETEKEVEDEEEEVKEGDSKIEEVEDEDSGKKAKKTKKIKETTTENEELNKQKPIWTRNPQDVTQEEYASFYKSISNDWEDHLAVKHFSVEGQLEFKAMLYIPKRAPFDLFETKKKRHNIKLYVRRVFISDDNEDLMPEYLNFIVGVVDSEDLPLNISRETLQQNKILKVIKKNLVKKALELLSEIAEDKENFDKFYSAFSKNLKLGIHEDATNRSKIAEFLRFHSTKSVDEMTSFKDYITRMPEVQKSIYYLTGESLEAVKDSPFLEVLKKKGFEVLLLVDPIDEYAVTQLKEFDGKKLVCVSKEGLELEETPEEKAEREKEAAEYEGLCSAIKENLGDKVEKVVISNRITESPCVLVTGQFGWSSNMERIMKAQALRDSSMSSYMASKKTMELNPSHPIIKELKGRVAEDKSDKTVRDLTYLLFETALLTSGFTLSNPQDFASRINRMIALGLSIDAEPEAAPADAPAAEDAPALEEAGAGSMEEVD
- Assay details: intrinsic tryptophan fluorescence quenching; also inhibits ATPase activity of the purified protein (IC50 […] at […]°C, […] at […]°C)
- Assay type: binding
Parameter measured: Kd (µM)
Note: unit µM is implicit; provide only the numeric part.

Answer with the recorded Kd of C=CCNC1=C2C[C@@H](C)C[C@H](OC)[C@H](O)[C@@H](C)/C=C(\C)[C@H](OC(N)=O)[C@@H](OC)/C=C\C=C(/C)C(=O)NC(=CC1=O)C2=O only. 12.9

* * *

- Target: CnHsp90 (heat shock protein 90) (Cryptococcus neoformans)
- Construct: gene CNAG_06150; recombinant CnHsp90 6x-His tag fusion protein (2157 bp amplified product in pRSET-A)
- Assay details: intrinsic tryptophan fluorescence quenching; also hydrolysis of γ-32P-ATP (Km […] at […]°C, […] at […]°C)
- Format: binding
Parameter measured: pKd
Please express pKd as -log10 of the molar concentration.

Param request: pKd | system CnHsp90 (heat shock protein 90) (Cryptococcus neoformans) | item Nc1ncnc2c1ncn2[C@@H]1O[C@H](COP(=O)(O)OP(=O)(O)OP(=O)(O)O)[C@@H](O)[C@H]1O [ATP] 3.30
